- Measurement protocol: Human HepG2 cell viability assay in 384 well format
- Format: toxicity, cell-based
- Set-up: dose 125 nL, time 70.5 hour; concentration not given beside the values
- Test conditions: HepG2 cells, read-out: Inhibition
Property measured: cytotoxicity at 70.5 h (%)
Answers are plain numbers, in %.

As a guide, the following entries are already answered.
- Molecule: "O=C(NC1CCCN(CCc2ccccc2)C1)c1cnccn1 (stereo unspecified)"
  Measure unit: "%"
  cytotoxicity at 70.5 h: -3.22
- Molecule: "CCC1=N[C@@]2(CC[C@@H]3CN(C(=O)NCc4ccccc4C)C[C@@H]32)C(=O)N1"
  Measure unit: "%"
  cytotoxicity at 70.5 h: -11.1
- Molecule: "c1c(CN2CCOCC2)nc2n1CCN(C1CCOCC1)C2"
  Measure unit: "%"
  cytotoxicity at 70.5 h: -1.69
- Molecule: "Cc1nc(CNC(=O)NCC(O)c2cccc(Cl)c2)cs1 (stereo unspecified)"
  Measure unit: "%"
  cytotoxicity at 70.5 h: 5.52

Quick batch: cytotoxicity at 70.5 h for everything below.
1. Cc1ccc(CNCC2Cn3nncc3CO2)s1 (stereo unspecified)
2. Cc1noc(C2CCN(C(=O)c3ccc(C(F)(F)F)nc3)CC2)n1
3. Cc1cnc(N2CC[C@H]3[C@@H]2CCC(=O)N3c2ccccc2)nc1
4. CC(=O)N1CCO[C@@H]2CN(S(=O)(=O)c3cccs3)CC[C@@H]2C1
5. O=C(c1cn(-c2ccccc2C(F)(F)F)nn1)N1CCSCC1
6. O=S(=O)(C1CC1)N1CCC2(CC1)CC(Oc1ccccn1)CO2 (stereo unspecified)
7. CC(C)CCCNC(=O)Nc1ccc(C(N)=O)c(Cl)c1

Result string:
-4.83
-5.24
5.23
-9.77
-15.5
2.03
-4.82
